Measured values drawn from ChEMBL document CHEMBL1123964 for this set.

- tested-on: Gonadotropin-releasing hormone receptor (Rattus norvegicus)
- assay-text: Antiovulatory activity on diestrus II following administration as a solution in corn oil (24h earlier) in rat.
- Assay type: functional, organism-based
Square brackets hold non-standard residues; d marks the D form. Peptide text beside a SMILES is read from it. d(hArg(Et2)) = CCN=C(NCC)NCCCC[C@@H](N)C(=O)O; dPhe(4-Cl) = N[C@H](Cc1ccc(Cl)cc1)C(=O)O; d2Nal = N[C@H](Cc1ccc2ccccc2c1)C(=O)O
Known ED50 (ug injection-1) of a selection of molecules
Write no unit; give the number alone.

Input line: Checklist item: ED50 (ug injection-1) tested on Gonadotropin-releasing hormone receptor (Rattus norvegicus), entry CCNC(=NCCCC[C@@H](NC(=O)[C@H](Cc1ccc(O)cc1)NC(=O)[C@H](CO)NC(=O)[C@@H](Cc1c[nH]c2ccccc12)NC(=O)[C@@H](Cc1ccc(Cl)cc1)NC(=O)[C@@H](Cc1ccc2ccccc2c1)NC(C)=O)C(=O)N[C@@H](Cc1ccccc1)C(=O)N[C@@H](CCCN=C(N)N)C(=O)N1CCC[C@H]1C(=O)N[C@H](C)C(N)=O)NCC (Ac-[d2Nal][dPhe(4-Cl)][dW]SY[d(hArg(Et2))]FRP[dA]-NH2) , value?
Output line: 8

New cases:
Input line: // lookup ED50 (ug injection-1) | system=Gonadotropin-releasing hormone receptor (Rattus norvegicus) | key= CCNC(=NCCCC[C@@H](NC(=O)[C@H](Cc1ccc(O)cc1)NC(=O)[C@H](CO)NC(=O)[C@@H](Cc1c[nH]c2ccccc12)NC(=O)[C@@H](Cc1ccc(Cl)cc1)NC(=O)[C@@H](Cc1ccc2ccccc2c1)NC(C)=O)C(=O)N[C@@H](CC(C)C)C(=O)N[C@@H](CCCN=C(N)N)C(=O)N1CCC[C@H]1C(=O)N[C@H](C)C(N)=O)NCC (stereo in doubt)
Output line: 2.5

Input line: // repeat for CCNC(=NCCCC[C@@H](NC(=O)[C@H](Cc1ccc(O)cc1)NC(=O)[C@H](CO)NC(=O)[C@@H](Cc1c[nH]c2ccccc12)NC(=O)[C@@H](Cc1ccc(Cl)cc1)NC(=O)[C@@H](Cc1ccc2ccccc2c1)NC(C)=O)C(=O)N[C@@H](CC(C)C)C(=O)N[C@@H](CCCN=C(N)N)C(=O)N1CCC[C@H]1C(=O)NCC(N)=O)NCC and report
Output line: 2.5
